Kindly supply the reported koff values for the records listed here.
# target_desc: T1, biotinylated human transferrin receptor (human, UniProt P02786 89-760, limits assumed, biotinylated (mono-biotinylated in Example 13))
# T1 construct: also called human transferrin receptor-biotinylated; mono-biotinylated human transferrin receptor
# test_method_notes: SPR BIAcore B4000, biotinylated TfR captured, 25 C

INSERT INTO results (binder, reported_result) VALUES
  ('VH7-DANG / VK6-SYS (antibody, V domains shown) VH: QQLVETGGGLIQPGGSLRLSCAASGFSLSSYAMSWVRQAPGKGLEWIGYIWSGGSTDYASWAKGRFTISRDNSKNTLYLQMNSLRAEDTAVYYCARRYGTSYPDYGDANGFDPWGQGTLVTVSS VL: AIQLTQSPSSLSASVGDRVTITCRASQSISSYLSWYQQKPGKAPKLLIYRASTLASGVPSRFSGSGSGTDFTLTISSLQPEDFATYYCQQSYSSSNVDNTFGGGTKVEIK', '0.0308 s⁻¹'),
  ('VH23-DANG / VK6-SYS (antibody, V domains shown) VH: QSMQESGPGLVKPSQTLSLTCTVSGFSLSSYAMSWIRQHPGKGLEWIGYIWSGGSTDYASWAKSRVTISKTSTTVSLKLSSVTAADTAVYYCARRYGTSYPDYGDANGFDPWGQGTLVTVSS VL: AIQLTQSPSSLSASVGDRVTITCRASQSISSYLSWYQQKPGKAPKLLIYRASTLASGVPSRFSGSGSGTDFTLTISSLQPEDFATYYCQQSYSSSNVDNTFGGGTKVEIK', '0.0132 s⁻¹');

koff reading for VH23-DANG / VK2-SYS (antibody, V domains shown) VH: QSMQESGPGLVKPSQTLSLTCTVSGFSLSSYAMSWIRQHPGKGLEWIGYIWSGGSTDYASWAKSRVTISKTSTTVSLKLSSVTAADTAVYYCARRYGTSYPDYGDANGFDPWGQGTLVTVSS VL: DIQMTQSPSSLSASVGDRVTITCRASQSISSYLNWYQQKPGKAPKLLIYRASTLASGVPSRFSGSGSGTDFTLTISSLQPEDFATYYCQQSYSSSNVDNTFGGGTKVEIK : 0.00522 s⁻¹

Values were extracted from patent US20230220071A1.
